tested on: MDA-MB-468; assay: Cytotoxicity against human MDA-MB-468 cells after 48 hrs by SRB assay; assay type: functional; conditions: MDA-MB-468, 48 h
Exercise: state measured GI50 for each of the compounds provided.
The reply should contain only the number, in nM.

Looking up CC(C)Sc1cc2c(c3nsnc13)C(=O)c1ccccc1C2=O , I see its GI50 listed as 370

Looking up O=C1c2ccccc2C(=O)c2c1cc(Sc1ccccc1Br)c1nsnc21 , I see its GI50 listed as 950

Looking up O=C1c2ccccc2C(=O)c2c1cc(Sc1ccc(F)cc1F)c1nsnc21 , I see its GI50 listed as 450

Looking up O=C1c2ccccc2C(=O)c2c1cc(SCc1ccccc1)c1nsnc21 , I see its GI50 listed as 890

Looking up O=C1c2ccccc2C(=O)c2c1cc(Sc1cccc(Cl)c1)c1nsnc21 , I see its GI50 listed as 950

----------
system: CCRF-CEM; assay: Cytotoxicity against human CCRF-CEM cells after 48 hrs by SRB assay; type: functional
quantity kind: GI50
I'd appreciate it if you wrote the number followed by its unit.

Looking up O=C1c2ccccc2C(=O)c2c1cc(Sc1ccccc1Br)c1nsnc21 , I see its GI50 listed as 4.88 µM

Looking up O=C1c2ccccc2C(=O)c2c1cc(Sc1ccc(F)cc1F)c1nsnc21 , I see its GI50 listed as 0.7 µM

Looking up O=C1c2ccccc2C(=O)c2c1cc(SCc1ccccc1)c1nsnc21 , I see its GI50 listed as 1.3 µM

----------
system: 786-0; assay: Cytotoxicity against human 786-0 cells assessed as cell growth at 10 uM after 48 hrs by SRB assay relative to control; assay type: functional; conditions: 786-0, 48 h, read-out: Activity
quantity kind: growth at 10 µM (%)
The reply should contain only the number, in %.

Looking up O=C1c2ccccc2C(=O)c2c1cc(Sc1cc(Cl)ccc1Cl)c1nsnc21 , I see its growth at 10 µM listed as 67.5

Looking up COc1cccc(Sc2cc3c(c4nsnc24)C(=O)c2ccccc2C3=O)c1 , I see its growth at 10 µM listed as 103

Looking up Cc1ccccc1Sc1cc2c(c3nsnc13)C(=O)c1ccccc1C2=O , I see its growth at 10 µM listed as 100

Looking up O=C1c2ccccc2C(=O)c2c1cc(Sc1ccccc1Br)c1nsnc21 , I see its growth at 10 µM listed as -6.19

----------
Exercise: state measured growth at 10 µM for each of the compounds provided.
system: Malme-3M; assay: Cytotoxicity against human MALME-3M cells assessed as cell growth at 10 uM after 48 hrs by SRB assay relative to control; type: functional; settings: read-out: Activity
The reply should contain only the number, in %.

Response field growth at 10 µM (Malme-3M) for item CC(C)Sc1cc2c(c3nsnc13)C(=O)c1ccccc1C2=O : -86

Response field growth at 10 µM (Malme-3M) for item O=C1c2ccccc2C(=O)c2c1cc(Sc1ccccc1)c1nsnc21 : 106

Response field growth at 10 µM (Malme-3M) for item Cc1ccccc1Sc1cc2c(c3nsnc13)C(=O)c1ccccc1C2=O : 96.8

Response field growth at 10 µM (Malme-3M) for item Cc1cc(C)cc(Sc2cc3c(c4nsnc24)C(=O)c2ccccc2C3=O)c1 : 102

Response field growth at 10 µM (Malme-3M) for item O=C1c2ccccc2C(=O)c2c1cc(Sc1ccc(F)cc1F)c1nsnc21 : 39.5

----------
test system: HT-29; test: Cytotoxicity against human HT-29 cells after 48 hrs by SRB assay; type: functional; conditions: HT-29, 48 h
Exercise: state measured LC50 for each of the compounds provided.

Looking up O=C1c2ccccc2C(=O)c2c1cc(Sc1ccccc1Br)c1nsnc21 , I see its LC50 listed as > 50 µM

Looking up O=C1c2ccccc2C(=O)c2c1cc(SCc1ccccc1)c1nsnc21 , I see its LC50 listed as > 50 µM

Looking up O=C1c2ccccc2C(=O)c2c1cc(Sc1ccc(F)cc1F)c1nsnc21 , I see its LC50 listed as > 100 µM

----------
test system: SF-295; test: Cytotoxicity against human SF295 cells assessed as cell growth at 10 uM after 48 hrs by SRB assay relative to control; type: functional; details: SF-295, 48 h, read-out: Activity
Exercise: state measured growth at 10 µM for each of the molecules provided.

Response field growth at 10 µM (SF-295) for item Cc1cc(C)cc(Sc2cc3c(c4nsnc24)C(=O)c2ccccc2C3=O)c1 : 91.1%

Response field growth at 10 µM (SF-295) for item O=C1c2ccccc2C(=O)c2c1cc(SCc1ccccc1)c1nsnc21 : 91.6%

Response field growth at 10 µM (SF-295) for item Cc1cccc(C)c1Sc1cc2c(c3nsnc13)C(=O)c1ccccc1C2=O : 91.1%

----------
system: NCI-H522; test: Cytotoxicity against human NCI-H522 cells assessed as cell growth at 10 uM after 48 hrs by SRB assay relative to control; format: functional; details: NCI-H522, 48 h, read-out: Activity
Exercise: state measured growth at 10 µM for each of the compounds provided.
The reply should contain only the number, in %.

Looking up O=C1c2ccccc2C(=O)c2c1cc(Sc1cccc(Cl)c1)c1nsnc21 , I see its growth at 10 µM listed as 7.18

Looking up O=C1c2ccccc2C(=O)c2c1cc(SCc1ccccc1)c1nsnc21 , I see its growth at 10 µM listed as 78.9

Looking up O=C1c2ccccc2C(=O)c2c1cc(Sc1ccccc1Br)c1nsnc21 , I see its growth at 10 µM listed as 30.8

----------
tested on: NCI-H460; experiment: Cytotoxicity against human NCI-H460 cells assessed as cell growth at 10 uM after 48 hrs by SRB assay relative to control; format: functional; conditions: NCI-H460, 48 h, read-out: Activity
quantity kind: growth at 10 µM (%)
The reply should contain only the number, in %.

Response field growth at 10 µM (NCI-H460) for item O=C1c2ccccc2C(=O)c2c1cc(SCc1ccccc1)c1nsnc21 : 92

Response field growth at 10 µM (NCI-H460) for item Cc1ccccc1Sc1cc2c(c3nsnc13)C(=O)c1ccccc1C2=O : 88.9

Response field growth at 10 µM (NCI-H460) for item Cc1cccc(C)c1Sc1cc2c(c3nsnc13)C(=O)c1ccccc1C2=O : 87.4

----------
system: U-251; test: Cytotoxicity against human U251 cells assessed as cell growth at 10 uM after 48 hrs by SRB assay relative to control; type: functional; conditions: U-251, 48 h, read-out: Activity
Exercise: state measured growth at 10 µM for each of the compounds provided.
The reply should contain only the number, in %.

Looking up O=C1c2ccccc2C(=O)c2c1cc(Sc1ccccc1)c1nsnc21 , I see its growth at 10 µM listed as 88.8

Looking up O=C1c2ccccc2C(=O)c2c1ccc1nsnc21 , I see its growth at 10 µM listed as -89.3

Looking up CSc1ccc(Sc2cc3c(c4nsnc24)C(=O)c2ccccc2C3=O)cc1 , I see its growth at 10 µM listed as 104

Looking up O=C1c2ccccc2C(=O)c2c1cc(SCc1ccc(Cl)cc1)c1nsnc21 , I see its growth at 10 µM listed as 94.4

Looking up O=C1c2ccccc2C(=O)c2c1cc(Sc1ccccc1Br)c1nsnc21 , I see its growth at 10 µM listed as 11.5

Looking up O=C1c2ccccc2C(=O)c2c1cc(Cl)c1nsnc21 , I see its growth at 10 µM listed as 29.2

Looking up O=C1c2ccccc2C(=O)c2c1cc(Sc1cccc(Cl)c1)c1nsnc21 , I see its growth at 10 µM listed as -69.5

Looking up Cc1cc(C)cc(Sc2cc3c(c4nsnc24)C(=O)c2ccccc2C3=O)c1 , I see its growth at 10 µM listed as 108

----------
tested on: KM12; test: Cytotoxicity against human KM12 cells assessed as cell growth at 10 uM after 48 hrs by SRB assay relative to control; type: functional; conditions: KM12, 48 h, read-out: Activity
Exercise: state measured growth at 10 µM for each of the compounds provided.
The reply should contain only the number, in %.

Looking up COc1cccc(Sc2cc3c(c4nsnc24)C(=O)c2ccccc2C3=O)c1 , I see its growth at 10 µM listed as 97.1

Looking up O=C1c2ccccc2C(=O)c2c1cc(Sc1ccc(Cl)cc1)c1nsnc21 , I see its growth at 10 µM listed as 102

Looking up O=C1c2ccccc2C(=O)c2c1cc(SCc1ccc(Cl)cc1)c1nsnc21 , I see its growth at 10 µM listed as 105

Looking up O=C1c2ccccc2C(=O)c2c1cc(SCc1ccccc1)c1nsnc21 , I see its growth at 10 µM listed as 103

Looking up CSc1ccc(Sc2cc3c(c4nsnc24)C(=O)c2ccccc2C3=O)cc1 , I see its growth at 10 µM listed as 100

Looking up O=C1c2ccccc2C(=O)c2c1cc(Sc1ccccc1)c1nsnc21 , I see its growth at 10 µM listed as 99.5

Looking up Cc1cc(C)cc(Sc2cc3c(c4nsnc24)C(=O)c2ccccc2C3=O)c1 , I see its growth at 10 µM listed as 105

Looking up O=C1c2ccccc2C(=O)c2c1ccc1nsnc21 , I see its growth at 10 µM listed as 98.6

Looking up O=C1c2ccccc2C(=O)c2c1cc(Sc1ccccc1Br)c1nsnc21 , I see its growth at 10 µM listed as 57.9

Looking up O=C1c2ccccc2C(=O)c2c1cc(Cl)c1nsnc21 , I see its growth at 10 µM listed as 95.9

Looking up O=C1c2ccccc2C(=O)c2c1cc(Sc1ccc(F)cc1F)c1nsnc21 , I see its growth at 10 µM listed as 51.8

Looking up O=C1c2ccccc2C(=O)c2c1cc(Sc1cc(Cl)ccc1Cl)c1nsnc21 , I see its growth at 10 µM listed as 101

Looking up CC(C)Sc1cc2c(c3nsnc13)C(=O)c1ccccc1C2=O , I see its growth at 10 µM listed as 19.3

Looking up COc1ccc(Sc2cc3c(c4nsnc24)C(=O)c2ccccc2C3=O)cc1 , I see its growth at 10 µM listed as 101

Looking up Cc1ccc(Sc2cc3c(c4nsnc24)C(=O)c2ccccc2C3=O)c(C)c1 , I see its growth at 10 µM listed as 96.4

Looking up Cc1cccc(C)c1Sc1cc2c(c3nsnc13)C(=O)c1ccccc1C2=O , I see its growth at 10 µM listed as 96
